molecular target: Arabidopsis COP1^349–675 WD40 domain (Arabidopsis thaliana, UniProt P43254); construct: His10-Twin-Strep with TEV site (N, cleaved yes); made in house; host or cells: Spodoptera frugiperda Sf9 insect cells (baculovirus, modified pFastBac); test: Isothermal titration calorimetry (ITC) versus the COP1 WD40 domain; format: binding; details: ITC, peptide into COP1, 25°C, one-site binding model; ± standard deviation
Sequence (P43254 349-675): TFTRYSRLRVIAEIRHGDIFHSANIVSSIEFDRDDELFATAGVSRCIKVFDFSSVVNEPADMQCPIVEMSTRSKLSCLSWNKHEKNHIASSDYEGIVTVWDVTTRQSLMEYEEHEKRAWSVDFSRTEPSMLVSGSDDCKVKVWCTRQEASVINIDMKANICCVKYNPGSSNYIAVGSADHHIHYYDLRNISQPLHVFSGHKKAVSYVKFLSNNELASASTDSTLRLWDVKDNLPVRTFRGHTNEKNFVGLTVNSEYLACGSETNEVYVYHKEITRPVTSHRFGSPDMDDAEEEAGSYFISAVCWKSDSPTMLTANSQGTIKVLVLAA
Readout Label: N (stoichiometry of binding), VP peptide vs. COP1 WD40 domain (WT)
// return a plain number; no unit text

# query: N (stoichiometry of binding), VP peptide vs. COP1 WD40 domain (WT) of entry Ac-GFGVVPSFY-NH2 [COL3 peptide]
0.75

# query: N (stoichiometry of binding), VP peptide vs. COP1 WD40 domain (WT) of entry Ac-EDQMVPSITY-NH2 [CRY1 peptide]
0.99

# query: N (stoichiometry of binding), VP peptide vs. COP1 WD40 domain (WT) of entry Ac-NDQQVPSAVY-NH2 [CRY2 peptide]
1.04

As a next step, examine the substance that follows.
# query: N (stoichiometry of binding), VP peptide vs. COP1 WD40 domain (WT) of entry Ac-GYGIVPSFY-NH2 [CO peptide]
1.03

* * *

molecular target: COP1^Lys422Ala WD40 domain (Arabidopsis thaliana, UniProt P43254, K422A); construct: His10-Twin-Strep with TEV site (N, cleaved yes); made in house; host or cells: Spodoptera frugiperda Sf9 insect cells (baculovirus, modified pFastBac); assay: biochemical; assay type: binding
Sequence (P43254 349-675 K422A): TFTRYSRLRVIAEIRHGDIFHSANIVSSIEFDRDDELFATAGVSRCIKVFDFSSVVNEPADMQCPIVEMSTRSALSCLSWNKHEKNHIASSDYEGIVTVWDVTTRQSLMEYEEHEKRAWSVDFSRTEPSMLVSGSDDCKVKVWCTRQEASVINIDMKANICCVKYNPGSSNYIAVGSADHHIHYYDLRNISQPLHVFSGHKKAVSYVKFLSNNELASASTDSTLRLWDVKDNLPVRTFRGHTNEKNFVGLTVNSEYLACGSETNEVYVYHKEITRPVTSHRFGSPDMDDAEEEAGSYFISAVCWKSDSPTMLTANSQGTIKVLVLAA
Readout Label: Kd (µM)
Expressed in µM, but write only the number.

Test system COP1^Lys422Ala WD40 domain (Arabidopsis thaliana, UniProt P43254, K422A); read-out Kd; what value for Ac-EIRRVPEFGGY-NH2 [HY5 peptide] ?
23

Test system COP1^Lys422Ala WD40 domain (Arabidopsis thaliana, UniProt P43254, K422A); read-out Kd; what value for Ac-GYGIVPSFY-NH2 [CO peptide] ?
21

* * *

molecular target: COP1^Lys422Ala WD40 domain (Arabidopsis thaliana, UniProt P43254, K422A); construct: His10-Twin-Strep with TEV site (N, cleaved yes); made in house; host or cells: Spodoptera frugiperda Sf9 insect cells (baculovirus, modified pFastBac); experiment: biochemical; format: binding; details: ITC, peptide into COP1^Lys422Ala, 25°C; ± standard deviation
# N (stoichiometry of binding), VP peptide vs. COP1^Lys422Ala per entry
// return a plain number; no unit text

For orientation, consider the following solved cases.
Test system COP1^Lys422Ala WD40 domain (Arabidopsis thaliana, UniProt P43254, K422A); read-out N (stoichiometry of binding), VP peptide vs. COP1^Lys422Ala; what value for Ac-EIRRVPEFGGY-NH2 [HY5 peptide] ?
0.83

Test system COP1^Lys422Ala WD40 domain (Arabidopsis thaliana, UniProt P43254, K422A); read-out N (stoichiometry of binding), VP peptide vs. COP1^Lys422Ala; what value for Ac-EDQMVPSITY-NH2 [CRY1 peptide] ?
0.98

Test system COP1^Lys422Ala WD40 domain (Arabidopsis thaliana, UniProt P43254, K422A); read-out N (stoichiometry of binding), VP peptide vs. COP1^Lys422Ala; what value for Ac-GFGVVPSFY-NH2 [COL3 peptide] ?
0.90

Test system COP1^Lys422Ala WD40 domain (Arabidopsis thaliana, UniProt P43254, K422A); read-out N (stoichiometry of binding), VP peptide vs. COP1^Lys422Ala; what value for Ac-GYGIVPSFY-NH2 [CO peptide] ?
0.89

As a next step, examine the substance that follows.
Test system COP1^Lys422Ala WD40 domain (Arabidopsis thaliana, UniProt P43254, K422A); read-out N (stoichiometry of binding), VP peptide vs. COP1^Lys422Ala; what value for Ac-RYAVVPDE-NH2 [UVR8 peptide] ?
0.87

The measured values listed here are drawn from paper PMC6745501.
